Ref: patent US10568819B2

target: UniProt:P03956
Sequence (P03956 100-469, species assumed): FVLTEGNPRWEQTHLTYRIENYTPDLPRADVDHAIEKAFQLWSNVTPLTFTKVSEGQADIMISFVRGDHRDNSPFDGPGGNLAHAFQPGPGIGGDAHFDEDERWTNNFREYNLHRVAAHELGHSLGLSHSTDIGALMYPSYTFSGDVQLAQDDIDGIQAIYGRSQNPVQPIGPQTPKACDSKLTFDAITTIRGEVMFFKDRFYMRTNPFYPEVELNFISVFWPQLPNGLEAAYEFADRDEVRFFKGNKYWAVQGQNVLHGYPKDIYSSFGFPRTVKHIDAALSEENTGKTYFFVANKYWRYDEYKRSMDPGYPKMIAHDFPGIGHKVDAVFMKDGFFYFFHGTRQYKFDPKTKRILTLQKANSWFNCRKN
parameter: pIC50
Answers are plain numbers, as −log10 of the molar value.

-- ask Provide pIC50, recorded with UniProt:P03956, of COc1cc(CC(C(C)=O)C(C)=O)ccc1O [Compound 1, Acetyl Zingerone]
-- reply 2.38

---

target: MMP-12 (Homo sapiens, UniProt P39900)
Sequence (P39900 106-470): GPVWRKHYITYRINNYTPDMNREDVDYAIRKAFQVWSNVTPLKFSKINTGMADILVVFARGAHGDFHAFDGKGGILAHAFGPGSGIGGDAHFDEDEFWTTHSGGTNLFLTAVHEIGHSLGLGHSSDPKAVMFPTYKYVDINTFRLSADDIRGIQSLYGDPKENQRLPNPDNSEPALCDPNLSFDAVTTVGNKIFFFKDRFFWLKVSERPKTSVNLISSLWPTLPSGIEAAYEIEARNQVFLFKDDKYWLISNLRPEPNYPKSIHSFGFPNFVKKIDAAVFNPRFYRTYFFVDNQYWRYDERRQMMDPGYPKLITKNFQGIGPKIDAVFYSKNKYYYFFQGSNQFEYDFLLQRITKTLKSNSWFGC
parameter: pIC50
Answers are plain numbers, as −log10 of the molar value.

-- ask Give me measured pIC50, please, for this molecule: COc1cc(CC(C(C)=O)C(C)=O)ccc1O
-- reply 2.97

---

target: UniProtKB P35228
Sequence (P35228 whole entry, species assumed): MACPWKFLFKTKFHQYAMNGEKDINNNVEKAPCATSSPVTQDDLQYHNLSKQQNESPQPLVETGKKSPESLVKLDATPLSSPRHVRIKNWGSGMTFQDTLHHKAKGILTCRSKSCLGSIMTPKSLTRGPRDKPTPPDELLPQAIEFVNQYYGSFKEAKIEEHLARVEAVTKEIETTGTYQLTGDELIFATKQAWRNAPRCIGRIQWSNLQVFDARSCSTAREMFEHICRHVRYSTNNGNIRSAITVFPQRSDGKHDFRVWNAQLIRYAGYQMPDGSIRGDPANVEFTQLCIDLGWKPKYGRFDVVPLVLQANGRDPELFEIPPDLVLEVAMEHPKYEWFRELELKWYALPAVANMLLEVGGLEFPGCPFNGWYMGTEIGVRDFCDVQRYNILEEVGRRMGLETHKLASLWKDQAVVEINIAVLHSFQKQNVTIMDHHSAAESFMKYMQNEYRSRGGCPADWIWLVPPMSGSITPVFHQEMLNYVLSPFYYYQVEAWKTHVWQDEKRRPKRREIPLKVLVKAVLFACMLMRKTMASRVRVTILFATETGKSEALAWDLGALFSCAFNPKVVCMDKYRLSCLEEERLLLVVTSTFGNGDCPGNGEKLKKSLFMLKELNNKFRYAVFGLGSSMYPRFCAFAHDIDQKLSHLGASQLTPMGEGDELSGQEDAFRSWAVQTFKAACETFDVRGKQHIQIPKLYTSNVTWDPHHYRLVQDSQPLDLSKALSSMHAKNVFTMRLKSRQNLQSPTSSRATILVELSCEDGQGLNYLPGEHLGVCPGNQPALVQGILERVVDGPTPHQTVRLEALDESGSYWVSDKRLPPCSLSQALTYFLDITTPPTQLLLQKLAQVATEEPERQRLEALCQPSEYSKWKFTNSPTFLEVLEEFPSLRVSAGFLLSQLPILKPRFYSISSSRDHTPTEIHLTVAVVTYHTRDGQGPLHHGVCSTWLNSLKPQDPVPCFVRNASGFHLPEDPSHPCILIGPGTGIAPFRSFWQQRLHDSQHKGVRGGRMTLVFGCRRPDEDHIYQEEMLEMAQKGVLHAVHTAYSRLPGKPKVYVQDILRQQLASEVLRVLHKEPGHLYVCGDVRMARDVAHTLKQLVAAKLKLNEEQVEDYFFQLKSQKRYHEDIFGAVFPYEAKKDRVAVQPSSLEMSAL
test.name: Reduction of iNOS activity
Format: biochemical
parameter: IC50 (µM)
Give bare numbers, in µM.

-- ask Give me measured IC50, please, for this compound: COc1cc(CC(C(C)=O)C(C)=O)ccc1O
-- reply 194
